# MEASUREMENT PROTOCOL: Cross-species PK summary (mice, rats, dogs, monkeys)
# Assay type: in vivo, and monkeys
# MEASUREMENT SETUP: mouse, rat, dog, monkey, plasma, oral, 3 mg/kg; mice, rats, dogs, monkeys; read-out: average bioavailability in the four species
READOUT LABEL: bioavailability
Don't forget the unit after the value.

## Input May I ask what bioavailability has been recorded for COc1cc2nccc(Oc3ccc(NC(=O)NC4CC4)c(Cl)c3)c2cc1C(N)=O ?
## Output 70%

* * *

# MEASUREMENT PROTOCOL: PK study in monkeys (intravenous and oral)
# Assay type: in vivo, cynomolgus monkeys
# MEASUREMENT SETUP: male, cynomolgus, cynomolgus monkey, plasma, intravenous 3 mg/kg, extrapolated
READOUT LABEL: C0
Dear colleague, please send the value followed by its unit.

## Input Please look up its C0: COc1cc2nccc(Oc3ccc(NC(=O)NC4CC4)c(Cl)c3)c2cc1C(N)=O [lenvatinib, Lenvatinib]
## Output 5170 ng/mL
